These entries and their values trace back to patent US20220064312A1.

# target under test: human CCR8 (human, UniProt P51685 1-355)
# Sequence (P51685 whole entry): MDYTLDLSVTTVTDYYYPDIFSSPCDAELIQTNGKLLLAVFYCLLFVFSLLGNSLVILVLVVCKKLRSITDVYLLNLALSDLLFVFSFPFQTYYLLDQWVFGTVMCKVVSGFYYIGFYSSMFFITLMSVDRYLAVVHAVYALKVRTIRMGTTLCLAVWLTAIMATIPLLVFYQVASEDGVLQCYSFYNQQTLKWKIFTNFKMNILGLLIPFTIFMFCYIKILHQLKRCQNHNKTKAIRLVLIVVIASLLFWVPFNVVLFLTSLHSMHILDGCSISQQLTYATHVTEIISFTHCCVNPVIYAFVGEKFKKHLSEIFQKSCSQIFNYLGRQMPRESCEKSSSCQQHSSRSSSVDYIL
# assay comment: cell-based or functional assay

{"columns": ["binder", "IC50 (nM), Ca2+ influx by 200 nM hCCL1"],
 "data": [
  ["h10A11 IGKV4-1 N53Q, G29R/IGHV3-15 T94R (antibody, V domains shown) VH: EVQLVESGGALVKPGGSLRLSCAASGFTFSTYALYWVRQAPGKGLEWVGRIRSKSNNYATYYADSVKDRFTISRDDSKNTLYLQMNSLKTEDTAVYYCTRARFYYSDYGYAMDYWGQGTLVTVSS VL: DIVMTQSPDSLAVSLGERATINCRSSKSLLHSNRNTYLYWYQQKPGQPPKLLIYRMSQLASGVPDRFSGSGSGTDFTLTISSLQAEDVAVYYCMQHLEYPLTFGQGTKLEIKR", 0.12],
  ["h10A11 IGKV3-20 N53Q, G29L/IGHV3-15 T94R (antibody, V domains shown) VH: EVQLVESGGALVKPGGSLRLSCAASGFTFSTYALYWVRQAPGKGLEWVGRIRSKSNNYATYYADSVKDRFTISRDDSKNTLYLQMNSLKTEDTAVYYCTRARFYYSDYGYAMDYWGQGTLVTVSS VL: EIVLTQSPGTLSLSPGERATLSCRSSKSLLHSNLNTYLYWYQQKPGQAPRLLIYRMSQLASGIPDRFSGSGSGTDFTLTISRLEPEDFAVYYCMQHLEYPLTFGQGTKVEIKR", 0.21],
  ["h10A11 IGKV3-20 N53Q, N28K/IGHV3-15 T94R (antibody, V domains shown) VH: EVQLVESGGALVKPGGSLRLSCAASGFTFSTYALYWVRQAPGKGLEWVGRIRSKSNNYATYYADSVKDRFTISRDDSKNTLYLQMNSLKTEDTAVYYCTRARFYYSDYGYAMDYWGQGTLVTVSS VL: EIVLTQSPGTLSLSPGERATLSCRSSKSLLHSKGNTYLYWYQQKPGQAPRLLIYRMSQLASGIPDRFSGSGSGTDFTLTISRLEPEDFAVYYCMQHLEYPLTFGQGTKVEIKR", 0.29]
]}
